Target: Corticotropin-releasing factor receptor 1 (Homo sapiens, UniProt P34998)
Sequence (P34998 whole entry): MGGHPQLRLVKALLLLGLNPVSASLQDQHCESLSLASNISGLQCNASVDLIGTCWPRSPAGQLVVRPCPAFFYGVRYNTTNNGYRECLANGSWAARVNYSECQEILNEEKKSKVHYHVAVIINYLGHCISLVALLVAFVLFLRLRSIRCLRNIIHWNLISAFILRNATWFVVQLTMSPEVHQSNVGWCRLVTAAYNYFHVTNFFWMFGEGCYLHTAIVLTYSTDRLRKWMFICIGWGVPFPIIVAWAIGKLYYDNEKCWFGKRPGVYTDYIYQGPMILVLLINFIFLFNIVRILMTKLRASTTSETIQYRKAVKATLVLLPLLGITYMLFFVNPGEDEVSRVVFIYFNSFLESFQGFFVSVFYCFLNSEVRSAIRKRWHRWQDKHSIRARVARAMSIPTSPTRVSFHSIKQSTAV
Experiment: Displacement of [125I]-CRF from human CRF1 receptor expressed in HEK293 cells after 2 hrs
Type: cell-based
I'd be grateful if you could share measured IC50 for these entries.
Provide the reading as a plain figure in nM.

Item under review: COCc1cc(OC)c(-c2nc3c(C)ccc(N(C)C)c3cc2C)c(OC)c1 . Reported IC50?
212

Try the compound COCc1cc(OC)c(-c2nc3c(C)ccc(N(CC4CC4)CC4CC4)c3cc2C)c(OC)c1
88

Try the compound CCN(CC)c1ccc(C)c2nc(-c3c(OC)cc(COC)cc3OC)c(C)cc12
79

Try the compound CCCN(CCC)c1cccc2nc(-c3c(OC)cc(COC)cc3OC)c(C)cc12
276

Try the compound COCc1cc(OC)c(-c2nc3c(C)ccc(N(CC4CCOCC4)CC4CC4)c3cc2C)c(OC)c1
286

Try the compound CCN(CC)c1ccc(C)c2nc(-c3c(OC)cc(COC)cc3OC)ccc12
184

Try the compound CCCN(CCC)c1ccc(C)c2nc(-c3c(OC)cc(COC)cc3OC)c(C)cc12
88
